system tested: Avi-KRAS WT (1-169) GppNHp/RAF1 RBD-3×FLAG (52-151) (Homo sapiens, UniProt P01116)
Construct: 50 nM Avi-KRAS WT (1-169) GppNHp/RAF1 RBD-3×FLAG (52-151)
Sequence (P01116 1-169 isoform P01116-2 limits assumed): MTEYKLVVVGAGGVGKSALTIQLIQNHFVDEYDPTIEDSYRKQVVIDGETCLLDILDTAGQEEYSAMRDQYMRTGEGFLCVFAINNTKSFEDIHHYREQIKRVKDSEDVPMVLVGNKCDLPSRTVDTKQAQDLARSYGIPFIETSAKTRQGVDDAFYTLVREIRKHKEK
protocol description: Disrupting RAS-effector binding HTRF assay, Raf1 RBD-KRAS WT-GppNHp
setup conditions: PPI HTRF, 50 nM Avi-KRAS WT GppNHp, compound titration 30-0.0045 μM; read-out: Raf1 RBD-KRAS WT-GppNHp disruption
Protocol: A protein:protein interaction (PPI) Homogeneous Time Resolved Fluorescence (HTRF) assay was used to determine the effectiveness of compounds of the present disclosure in disrupting KRAS protein and effector RAF1 binding. […] Plates were analyzed on an Envision plate reader using the following setting: Excitation 320 nm, Bandwidth 75 nM; Emission 615 nm, Bandwidth 85 nM, Gain 100%, Flashes 100, Lag 60 μs. […] Data were plotted and analyzed using Prism 8. […]
measure: IC50

Below, 5 compounds whose answers are already recorded.
# compound, IC50
data = [
    ("N#Cc1c(N)sc2c(F)ccc(-c3c(C(F)(F)F)cc4c(N5CC6CCC(C5)N6)nc(OCCC5CCOCC5)nc4c3F)c12", "1 to 10 µM"),
    ("N#Cc1c(N)sc2c(F)ccc(-c3c(C(F)(F)F)cc4c(N5CC6CCC(C5)N6)nc(OC5CC(O)C5)nc4c3F)c12 (stereo not shown) [Compound 11]", "> 10 µM"),
    ("N#Cc1c(N)sc2c(F)ccc(-c3c(C(F)(F)F)cc4c(N5CC6CCC(C5)N6)nc(OCCCO)nc4c3F)c12", "1 to 10 µM"),
    ("CC(C)Oc1nc(N2CC3CCC(C2)N3)c2cc(C(F)(F)F)c(-c3ccc(F)c4sc(N)c(C#N)c34)c(F)c2n1", "1 to 10 µM"),
    ("CN(c1nc(OCC2CCOCC2)nc2c(F)c(-c3ccc(F)c4sc(N)c(C#N)c34)c(C(F)(F)F)cc12)[C@H]1CCCNC1", "> 10 µM"),
]

// IC50 lookup, key: `COc1nc(N2CC3CCC(C2)N3)c2cc(C(F)(F)F)c(-c3ccc(F)c4sc(N)c(C#N)c34)c(F)c2n1` 1 to 10 µM

// IC50 lookup, key: `CCCOc1nc(N2CC3CCC(C2)N3)c2cc(C(F)(F)F)c(-c3ccc(F)c4sc(N)c(C#N)c34)c(F)c2n1` 1 to 10 µM
